Target: hPres (human prestin, SLC26A5) (Homo sapiens)
Sequence (P58743 1-744): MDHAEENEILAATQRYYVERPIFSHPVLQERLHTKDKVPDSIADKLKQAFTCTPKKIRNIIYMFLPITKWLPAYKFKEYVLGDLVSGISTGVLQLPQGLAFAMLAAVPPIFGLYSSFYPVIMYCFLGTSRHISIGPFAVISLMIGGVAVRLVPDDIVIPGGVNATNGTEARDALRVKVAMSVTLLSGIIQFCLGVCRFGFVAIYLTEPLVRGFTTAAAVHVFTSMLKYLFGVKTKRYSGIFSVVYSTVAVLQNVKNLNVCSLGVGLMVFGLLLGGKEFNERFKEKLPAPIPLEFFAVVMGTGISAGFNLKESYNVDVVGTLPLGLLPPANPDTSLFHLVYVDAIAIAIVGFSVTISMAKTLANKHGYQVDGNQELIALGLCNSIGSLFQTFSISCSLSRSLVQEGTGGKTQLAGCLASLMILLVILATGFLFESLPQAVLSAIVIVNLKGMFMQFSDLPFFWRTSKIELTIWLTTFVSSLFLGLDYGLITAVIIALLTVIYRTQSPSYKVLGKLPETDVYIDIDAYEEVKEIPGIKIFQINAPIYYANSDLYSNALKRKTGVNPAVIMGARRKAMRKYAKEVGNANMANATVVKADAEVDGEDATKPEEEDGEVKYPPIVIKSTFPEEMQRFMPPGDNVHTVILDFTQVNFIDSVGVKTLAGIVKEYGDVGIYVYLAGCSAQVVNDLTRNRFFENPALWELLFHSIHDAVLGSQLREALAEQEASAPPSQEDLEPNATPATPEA
parameter: pKd
In textbook form, pKd equals minus log to base ten of the concentration in mol/L.

Recorded pKd for O=C(O)c1ccccc1O [salicylate] , please?
2.15
